Origin of values: patent US8258138B2

Listed next: entries and their corresponding inhibition at 1 µM.
Biological target: human Kv1.3 (Homo sapiens)
Construct: expressed in transfected cells; host or cells: stably transfected cells grown in medium for CHO cells
Assay: Kv1.3 Autopatch electrophysiology (whole cell patch-clamp, inhibition of charge movement)
Format: cell-based
Settings: compound at 1 μM; cells stably transfected with human Kv1.3; room temperature; total charge during step to +30 mV relative to control; read-out: hKv1.3 % inh.
readout_kind: inhibition at 1 µM (%)

> print(dat)
                                    molecule        readout.kind  reported.value
 1  CN(C)S(=O)(=O)N(Cc1ccccc1)c1ccc(C(=O)N2CCOC(c3ccccc3)C2)cc1 (stereo not drawn) [Example 6]  inhibition at 1 µM              60
 2  N#Cc1ccc(S(=O)(=O)N(Cc2ccccc2)c2ccc(C(=O)N3CCN(c4ccccc4)CC3)cc2)cc1 [Example 22]  inhibition at 1 µM              39
 3  O=C(c1ccc(N(Cc2ccccc2)S(=O)(=O)c2ccsc2)cc1)N1CCN(c2ccccc2)CC1 [Example 18]  inhibition at 1 µM              80
 4  Cn1cnc(S(=O)(=O)N(Cc2ccc(Cl)cc2)c2ccc(C(=O)N3CCCCC3)cc2)c1 [Example 67]  inhibition at 1 µM              43
 5  Cc1nn(C)cc1S(=O)(=O)N(Cc1ccccc1)c1ccc(C(=O)N2CCN(c3ccccc3)CC2)cc1 [Example 46]  inhibition at 1 µM              66
 6  CCc1ccc(S(=O)(=O)N(Cc2ccccc2)c2ccc(C(=O)N3CCN(c4ccccc4)CC3)cc2)cc1 [Example 42]  inhibition at 1 µM              76
 7  COc1ccccc1CN(c1ccc(C(=O)N2CCN(c3ccccc3)CC2)cc1)S(=O)(=O)c1ccccc1 [Example 32]  inhibition at 1 µM              68
 8  Cn1ccc(S(=O)(=O)N(Cc2ccc(Cl)cc2)c2ccc(C(=O)N3CCCCC3)cc2)n1 [Example 86]  inhibition at 1 µM              88
 9  Cc1nc(C)c(S(=O)(=O)N(Cc2ccccc2)c2ccc(C(=O)N3CCN(c4ccccc4)CC3)cc2)s1 [Example 48]  inhibition at 1 µM              79
10  O=C(c1ccc(N(Cc2ccccc2)S(=O)(=O)c2cccc(F)c2)cc1)N1CCN(c2ccccc2)CC1 [Example 21]  inhibition at 1 µM              70
11  Cc1ccc(C2CCCN(C(=O)c3ccc(N(Cc4ccc(Cl)cc4)S(=O)(=O)c4ccccc4)cc3)C2)cc1 (stereo not drawn) [Example 4]  inhibition at 1 µM              67
12  O=C(c1ccc(N(Cc2ccccc2)S(=O)(=O)c2ccc3c(c2)OCCO3)cc1)N1CCN(c2ccccc2)CC1 [Example 15]  inhibition at 1 µM              66
13  Cc1ncc(S(=O)(=O)N(Cc2ccccc2)c2ccc(C(=O)N3CCN(c4ccccc4)CC3)cc2)n1C [Example 47]  inhibition at 1 µM              50
14  Cn1cnc(S(=O)(=O)N(Cc2ccccc2)c2ccc(C(=O)N3CCCC(F)C3)cc2)c1 (stereo not drawn) [Example 80]  inhibition at 1 µM              30
15  O=C(c1ccc(N(Cc2ccccc2)S(=O)(=O)c2ccccc2)cc1)N1CCCCC1 [Example 3]  inhibition at 1 µM              94

----------
Listed next: entries and their corresponding inhibition at 1 µM.
Target: human Kv1.3 (Homo sapiens, UniProt P22001)
Construct: expressed in transfected cells; host or cells: stably transfected cells grown in medium for CHO cells
Sequence (P22001 whole entry): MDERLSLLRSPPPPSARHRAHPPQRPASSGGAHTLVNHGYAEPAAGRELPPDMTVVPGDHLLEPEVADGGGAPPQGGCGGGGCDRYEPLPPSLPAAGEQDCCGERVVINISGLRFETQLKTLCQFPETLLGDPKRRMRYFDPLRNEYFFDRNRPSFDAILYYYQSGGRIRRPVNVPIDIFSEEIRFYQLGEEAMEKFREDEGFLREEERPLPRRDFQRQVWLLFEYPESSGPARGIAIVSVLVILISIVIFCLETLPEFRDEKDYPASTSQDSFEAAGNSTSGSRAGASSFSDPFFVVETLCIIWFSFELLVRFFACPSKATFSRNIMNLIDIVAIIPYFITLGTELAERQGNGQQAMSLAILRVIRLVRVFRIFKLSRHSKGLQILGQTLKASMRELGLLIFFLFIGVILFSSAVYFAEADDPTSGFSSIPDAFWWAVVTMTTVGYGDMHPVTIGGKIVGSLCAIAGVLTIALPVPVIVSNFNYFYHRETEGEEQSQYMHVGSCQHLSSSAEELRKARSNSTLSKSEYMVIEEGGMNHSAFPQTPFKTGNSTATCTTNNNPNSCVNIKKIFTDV
Assay: Kv1.3 Autopatch electrophysiology (whole cell patch-clamp, inhibition of charge movement)
Type: cell-based
Details: compound at 1 μM; cells stably transfected with human Kv1.3; room temperature; total charge during step to +30 mV relative to control; read-out: hKv1.3 % inh.
readout_kind: inhibition at 1 µM (%)

> print(dat)
                                    compound  units.of.measure  reported.value
 1  COc1cc(N(Cc2ccccc2)S(=O)(=O)c2ccccc2)ccc1C(=O)N1CCN(c2ccccc2)CC1                 %              92
 2  Cn1cnc(S(=O)(=O)N(Cc2ccccc2)c2ccc(CN3CCN(c4ccccc4)CC3)cc2)c1                 %              90
 3  O=C(c1ccc(N(Cc2cccc(OC(F)(F)F)c2)S(=O)(=O)c2ccccc2)cc1)N1CCN(c2ccccc2)CC1                 %              46
 4  O=C(c1ccc(N(Cc2ccc(Cl)cc2)S(=O)(=O)c2cccnc2)cc1)N1CCCCC1                 %              62
 5  Cn1cnc(S(=O)(=O)N(Cc2ccccc2)c2ccc(C(=O)N3CCN(c4nccs4)CC3)cc2)c1                 %              42
 6  CN1CCN(C(=O)c2ccc(N(Cc3ccccc3)S(=O)(=O)c3cn(C)cn3)cc2)CC1c1ccccc1 (centres unmarked)                 %              64
 7  Cc1noc(C2CCCN(C(=O)c3ccc(N(Cc4ccc(Cl)cc4)S(=O)(=O)c4cn(C)cn4)cc3)C2)n1 (centres unmarked)                 %              83
 8  CC1CCCN(C(=O)c2ccc(N(Cc3ccccc3)S(=O)(=O)c3cn(C)cn3)cc2)C1 (centres unmarked)                 %              51
 9  Cn1cnc(S(=O)(=O)N(Cc2ccc(F)c(Cl)c2)c2ccc(C(=O)N3CCCCC3)cc2)c1                 %              61
10  COc1cccc(S(=O)(=O)N(Cc2ccccc2)c2ccc(C(=O)N3CCN(c4ccccc4)CC3)cc2)c1                 %              74
11  COc1cccc(CN(c2ccc(C(=O)N3CCN(c4ccccc4)CC3)cc2)S(=O)(=O)c2cn(C)cn2)c1                 %              54
12  N#Cc1ccccc1CN(c1ccc(C(=O)N2CCN(c3ccccc3)CC2)cc1)S(=O)(=O)c1ccccc1                 %              50
13  O=C(c1ccc(N(Cc2ccccc2Cl)S(=O)(=O)c2ccccc2)cc1)N1CCN(c2ccccc2)CC1                 %              86
14  O=C(c1ccc(N(Cc2ccccc2)S(=O)(=O)c2ccc([N+](=O)[O-])cc2)cc1)N1CCN(c2ccccc2)CC1                 %              62
15  COc1cccc(CN(c2ccc(C(=O)N3CCN(c4ccccc4)CC3)cc2)S(=O)(=O)c2ccccc2)c1OC                 %              42
16  O=C(c1ccc(N(Cc2ccc(Cl)cc2)S(=O)(=O)c2ccccc2)cc1)N1CCN(c2ccccc2)CC1                 %              91
17  Cn1cnc(S(=O)(=O)N(Cc2ccc(Cl)c(Cl)c2)c2ccc(C(=O)N3CCCCC3)cc2)c1                 %              48
18  Cn1cnc(S(=O)(=O)N(Cc2ccccc2)c2ccc(C(=O)N3CCOC(c4ccccc4)C3)cc2F)c1 (centres unmarked)                 %              90
19  COc1ccc(S(=O)(=O)N(Cc2ccccc2)c2ccc(C(=O)N3CCN(c4ccccc4)CC3)cc2)cc1OC                 %              69
20  O=C(c1ccc(N(Cc2ccc(C(F)(F)F)cc2)S(=O)(=O)c2ccccc2)cc1)N1CCN(c2ccccc2)CC1                 %              50
21  O=C(c1ccc(N(Cc2ccccc2)S(=O)(=O)c2ccc3ccccc3c2)cc1)N1CCN(c2ccccc2)CC1                 %              51
22  CN1CCN(C(=O)c2ccc(N(Cc3ccccc3)S(=O)(=O)c3ccn(C)n3)cc2)CC1c1ccccc1 (centres unmarked)                 %              76
23  Cc1noc(C2CCCN(C(=O)c3ccc(N(Cc4ccccc4)S(=O)(=O)c4cn(C)cn4)cc3)C2)n1 (centres unmarked)                 %              57

----------
Molecular target: UniProtKB P22460
Sequence (P22460 whole entry): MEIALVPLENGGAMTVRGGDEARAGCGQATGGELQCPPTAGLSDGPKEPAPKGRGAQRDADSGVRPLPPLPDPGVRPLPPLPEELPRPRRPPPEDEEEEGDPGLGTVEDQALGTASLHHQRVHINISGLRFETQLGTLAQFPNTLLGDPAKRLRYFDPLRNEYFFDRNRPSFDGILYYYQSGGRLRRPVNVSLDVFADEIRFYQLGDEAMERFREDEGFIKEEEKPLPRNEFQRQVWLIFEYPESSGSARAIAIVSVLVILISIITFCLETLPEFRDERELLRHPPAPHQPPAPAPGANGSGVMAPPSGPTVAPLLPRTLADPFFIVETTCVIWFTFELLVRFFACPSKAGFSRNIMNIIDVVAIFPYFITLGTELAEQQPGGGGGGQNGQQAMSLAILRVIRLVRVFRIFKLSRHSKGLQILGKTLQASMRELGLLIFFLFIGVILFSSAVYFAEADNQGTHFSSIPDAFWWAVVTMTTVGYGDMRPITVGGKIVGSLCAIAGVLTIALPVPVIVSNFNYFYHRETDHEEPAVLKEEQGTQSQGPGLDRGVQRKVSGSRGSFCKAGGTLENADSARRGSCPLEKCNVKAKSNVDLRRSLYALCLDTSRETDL
Test: Kv1.5 Autopatch electrophysiology (whole cell patch-clamp)
Type: cell-based
Conditions: compound at 1 μM; room temperature (22-24° C.); total charge during step to 0 mV; read-out: hKv1.5 % inh.
Listed next: entries and their corresponding inhibition at 1 µM.
readout_kind: inhibition at 1 µM (%)

> print(dat)
                                   compound       system.name  units.of.measure  reported.value
1  COc1cccc(S(=O)(=O)N(Cc2ccccc2)c2ccc(C(=O)N3CCN(c4ccccc4)CC3)cc2)c1  UniProtKB P22460                 %            81.2
2  O=C(c1ccc(N(Cc2ccccc2)S(=O)(=O)c2ccc([N+](=O)[O-])cc2)cc1)N1CCN(c2ccccc2)CC1  UniProtKB P22460                 %            62.4
3  Cn1cnc(S(=O)(=O)N(Cc2ccccc2)c2ccc(C(=O)N3CCOC(c4ccccc4)C3)cc2F)c1 (stereo not drawn)  UniProtKB P22460                 %            62.8
